Recorded values, source patent US8664220B2.

Biological target: human LPA1 (Homo sapiens, UniProt Q92633)
Construct: the full-length cDNA for human LPA1 was obtained by PCR of the reverse transcription reaction
Sequence (Q92633 whole entry): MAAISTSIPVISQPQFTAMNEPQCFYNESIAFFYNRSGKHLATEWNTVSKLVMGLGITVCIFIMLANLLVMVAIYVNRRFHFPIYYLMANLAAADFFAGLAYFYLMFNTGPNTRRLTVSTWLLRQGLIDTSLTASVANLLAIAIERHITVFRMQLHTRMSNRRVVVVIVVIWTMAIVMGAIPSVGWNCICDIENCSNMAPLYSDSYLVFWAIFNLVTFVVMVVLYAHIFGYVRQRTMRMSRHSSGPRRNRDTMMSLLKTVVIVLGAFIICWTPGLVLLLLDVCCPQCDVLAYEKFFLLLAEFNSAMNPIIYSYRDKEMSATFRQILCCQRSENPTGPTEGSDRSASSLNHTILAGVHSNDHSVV
Assay: LPA1 calcium flux assay
Conditions: human LPA1 expressing CHO cells, stimulated with 10 nM LPA; read-out: HLPA1 Ca Flux IC50
Recorded IC50 values for a group of compounds are listed next.

Reference set (10 entries):
INSERT INTO results (compound, test_value) VALUES
  ('Cc1noc(-c2ccc(-c3ccc(C4(C(=O)O)CC4)cc3)cc2)c1Nc1cccc(C(=O)N2CCCC2)n1', '< 0.3 µM'),
  ('Cc1noc(-c2ccc(-c3ccc(C4(C(=O)O)CC4)cc3)cc2)c1Nc1cccc(-c2cccc(F)c2C)n1', '< 0.3 µM'),
  ('Cc1noc(-c2ccc(-c3ccc(C4(C(=O)O)CC4)cc3)cc2)c1CN1C(=O)OC[C@@H]1c1ccccc1', '1 to 50 µM'),
  ('Cc1noc(-c2ccc(-c3ccc(C4(C(=O)O)CC4)cc3)cc2)c1CN1C(=O)O[C@H](c2ccccc2)[C@@H]1C', '< 0.3 µM'),
  ('Cc1noc(-c2ccc(-c3ccc(C4(C(=O)O)CC4)cc3)cc2)c1Nc1cncc(-c2cccc(F)c2)c1', '< 0.3 µM'),
  ('Cc1noc(-c2ccc(-c3ccc(C4(C(=O)O)CC4)cc3)cc2)c1Nc1cccc(C#CC2CCCC2)n1', '0.3 to 1 µM'),
  ('Cc1noc(-c2ccc(-c3ccc(C4(C(=O)O)CC4)cc3)cc2)c1NC1CCCCC1Cc1ccccc1 (stereo not drawn)', '< 0.3 µM'),
  ('Cc1noc(-c2ccc(-c3ccc(C4(C(=O)O)CC4)cc3)cc2)c1C(O)c1cccc(Cc2ccccc2)c1 (stereo not drawn)', '< 0.3 µM'),
  ('COc1cccc(-c2cccc(Nc3c(C)noc3-c3ccc(-c4ccc(C5(C(=O)O)CC5)cc4)cc3)n2)c1', '< 0.3 µM'),
  ('Cc1noc(-c2ccc(-c3ccc(C4(C(=O)O)CC4)cc3)cc2)c1N(c1cccc(Cc2ccccc2)n1)c1cccc(Cc2ccccc2)n1', '1 to 50 µM');

Exercise: I would be grateful if you could share the reported IC50 for Cc1noc(-c2ccc(-c3ccc(C4(C(=O)O)CC4)cc3)cc2)c1C1CC1C(=O)N(C)[C@H](C)c1ccccc1 (single isomer, unassigned) [Compound 1-26] .
Key: 0.3 to 1 µM

Exercise: Given the compound Cc1noc(-c2ccc(-c3ccc(C4(C(=O)O)CC4)cc3)cc2)c1CN1CC(c2ccccc2)OC1=O (stereo not drawn) , what is its reported IC50?
Key: < 0.3 µM

----------
Biological target: human LPA1 (Homo sapiens, UniProt Q92633)
Construct: the full-length cDNA for human LPA1 was obtained by PCR of the reverse transcription reaction
Experiment: LPA1 calcium flux assay
Conditions: human LPA1 expressing CHO cells, stimulated with 10 nM LPA; read-out: HLPA1 Ca Flux IC50
pIC50: −log10 of the molar value.
readout_kind: pIC50

Known pIC50 results, listed for orientation:
INSERT INTO measurements (compound, test_value) VALUES
  ('Cc1noc(-c2ccc(-c3ccc(C4(C(=O)O)CC4)cc3)cc2)c1C(=O)N1CCN(S(=O)(=O)c2ccc(Cl)c(Cl)c2)CC1 [Compound 1-3]', '4.30 to 6.00'),
  ('Cc1noc(-c2ccc(-c3ccc(C4(C(=O)O)CC4)cc3)cc2)c1Nc1cccc(-c2nn[nH]n2)n1 [Compound 1-149]', '4.30 to 6.00'),
  ('Cc1noc(-c2ccc(-c3ccc(C4(C(=O)O)CC4)cc3)cc2)c1Nc1cccc(N(C)c2ccccc2)n1 [Compound 1-105]', '6.00 to 6.52'),
  ('Cc1noc(-c2ccc(-c3ccc(C4(C(=O)O)CC4)cc3)cc2)c1Nc1cccc(-c2cc(F)cc(Cl)c2)n1 [Compound 1-147]', '> 6.52');

Exercise: # lookup: pIC50 of Cc1noc(-c2ccc(-c3ccc(C4(C(=O)O)CC4)cc3)cc2)c1Nc1cccc(-c2cccc(C(N)=O)c2)n1 [Compound 1-144]
Key: > 6.52

Exercise: Bench note: what pIC50 did Cc1noc(-c2ccc(-c3ccc(C4(C(=O)O)CC4)cc3)cc2)c1Nc1cccc(Oc2ccccc2)n1 [Compound 1-79] show?
Key: > 6.52

Exercise: What pIC50 value was documented for this compound, COc1ccc(F)cc1-c1cccc(Nc2c(C)noc2-c2ccc(-c3ccc(C4(C(=O)O)CC4)cc3)cc2)n1 [Compound 1-146] ?
Key: > 6.52

Exercise: State the recorded pIC50 for this entry: Cc1noc(-c2ccc(-c3ccc(CC(=O)O)cc3)cc2)c1Nc1cccc(-c2ccccc2)n1 [Compound 1-76]
Key: > 6.52

Exercise: Entry under review: Cc1noc(-c2ccc(-c3ccc(C4(C(=O)O)CC4)cc3)cc2)c1Cn1cc(Cc2ccccc2)nn1 [Compound 1-9] . Reported pIC50?
Key: > 6.52

Exercise: Consider the compound Cc1noc(-c2ccc(-c3ccc(C4(C(=O)O)CC4)cc3)cc2)c1Nc1ccnc(-c2cccc(F)c2)c1 [Compound 1-112] and give its measured pIC50.
Key: 4.30 to 6.00

----------
Target: human LPA1 (Homo sapiens)
Construct: the full-length cDNA for human LPA1 was obtained by PCR of the reverse transcription reaction; expressed in transfected cells
Assay: LPA1 calcium flux assay
Assay type: cell-based
Conditions: human LPA1 expressing CHO cells, stimulated with 10 nM LPA; read-out: HLPA1 Ca Flux IC50
Entries and their IC50 values follow.

Some solved cases for reference:
INSERT INTO results (molecule, test_value) VALUES
  ('Cc1noc(-c2ccc(-c3ccc(C(C)(C)C(=O)O)cc3)cc2)c1Nc1cccc(-c2ccccc2)n1 [Compound 1-133]', '< 300 nM'),
  ('Cc1noc(-c2ccc(-c3ccc(C4(C(=O)O)CC4)cc3)cc2)c1C(O)c1cncc(Cc2ccccc2)c1 (centres unmarked) [Compound 1-59]', '< 300 nM'),
  ('Cc1noc(-c2ccc(-c3ccc(C(=O)O)cc3)cc2)c1Nc1nnc(-c2ccccc2)o1 [Compound 1-142]', '1000 to 50000 nM'),
  ('Cc1noc(-c2ccc(-c3ccc(CCC(=O)O)cc3)cc2)c1C(O)c1cn(Cc2cccc(C(F)(F)F)c2)nn1 (centres unmarked) [Compound 1-52]', '1000 to 50000 nM'),
  ('Cc1noc(-c2ccc(-c3ccc(C4(C(=O)O)CC4)cc3)cc2)c1Nc1cccc(-c2ccccc2C#N)n1 [Compound 1-91]', '< 300 nM'),
  ('Cc1noc(-c2ccc(-c3ccc(C4(C(=O)O)CC4)cc3)cc2)c1Nc1cccc(Cc2ccccc2)c1 [Compound 1-90]', '< 300 nM');

Exercise: Fill in: IC50 of Cc1noc(-c2ccc(-c3ccc(C4(C(=O)O)CC4)cc3)cc2)c1Nc1cncc(-c2ccccc2)n1 [Compound 1-78] is ___
Key: < 300 nM

Exercise: If you can, please state the reported IC50 value of Cc1noc(-c2ccc(-c3ccc(C4(C(=O)O)CC4)cc3)cc2)c1C(O)c1cn(Cc2ccccc2)nn1 (centres unmarked) [Compound 1-25] .
Key: < 300 nM

----------
Target: human LPA1 (Homo sapiens, UniProt Q92633)
Construct: the full-length cDNA for human LPA1 was obtained by PCR of the reverse transcription reaction
Experiment: LPA1 calcium flux assay
Conditions: human LPA1 expressing CHO cells, stimulated with 10 nM LPA; read-out: HLPA1 Ca Flux IC50
IC50 reference

Reference set (3 entries):
INSERT INTO measurements (compound, target_system, test_value) VALUES
  ('Cc1noc(-c2ccc(-c3ccc(C4(C(=O)O)CC4)cc3)cc2)c1C(O)c1cn(Cc2c(Cl)cccc2Cl)nn1 (stereo not shown)', 'human LPA1 (Homo sapiens, UniProt Q92633)', '300 to 1000 nM'),
  ('Cc1noc(-c2ccc(-c3ccc(C4(C(=O)NS(C)(=O)=O)CC4)cc3)cc2)c1Nc1cccc(-c2ccccc2)n1', 'human LPA1 (Homo sapiens, UniProt Q92633)', '< 300 nM'),
  ('Cc1noc(-c2ccc(-c3ccc(C4(C(=O)O)CC4)cc3)cc2)c1C(O)c1cncc(-c2ccccc2)c1 (stereo not shown)', 'human LPA1 (Homo sapiens, UniProt Q92633)', '< 300 nM');

--- query ---
Exercise: What value of IC50 has been recorded for this entry: Cc1noc(-c2ccc(-c3ccc(CCC(=O)O)cc3)cc2)c1Nc1cccc(-c2ccccc2)n1
Key: < 300 nM

----------
Molecular target: human LPA1 (Homo sapiens, UniProt Q92633)
Construct: the full-length cDNA for human LPA1 was obtained by PCR of the reverse transcription reaction
Test: LPA1 calcium flux assay
Settings: human LPA1 expressing CHO cells, stimulated with 10 nM LPA; read-out: HLPA1 Ca Flux IC50
Documented IC50 across a set of molecules

INSERT INTO assay_data (molecule, readout_kind, test_value) VALUES
  ('Cc1noc(-c2ccc(-c3ccc(C4(C(=O)O)CC4)cc3)cc2)c1C(O)c1ccc(OCc2ccccc2)cc1 (stereo not drawn)', 'IC50', '1000 to 50000 nM'),
  ('Cc1noc(-c2ccc(-c3ccc(C4(C(=O)O)CC4)cc3)cc2)c1Nc1cncc(-c2ccc(C(F)(F)F)cc2)c1', 'IC50', '< 300 nM'),
  ('Cc1noc(-c2ccc(-c3ccc(C4(C(=O)O)CC4)cc3)cc2)c1Cn1nnc(-c2ccccc2)n1', 'IC50', '< 300 nM'),
  ('Cc1noc(-c2ccc(-c3ccc(C4(C(=O)O)CC4)cc3)cc2)c1CN1C(=O)O[C@@H](c2ccccc2)[C@H]1C', 'IC50', '300 to 1000 nM'),
  ('Cc1noc(-c2ccc(-c3ccc(C4(C(=O)O)CC4)cc3)cc2)c1C(O)c1cccc(-c2ccccc2)n1 (stereo not drawn)', 'IC50', '< 300 nM'),
  ('Cc1noc(-c2ccc(-c3ccc(C4(CC(=O)O)CC4)cc3)cc2)c1C(O)CCCc1ccc(Cc2ccccc2)cc1 (stereo not drawn)', 'IC50', '1000 to 50000 nM');

Exercise: Given the entry Cc1noc(-c2ccc(-c3ccc(C4(C(=O)O)CC4)cc3)cc2)c1Nc1cncc(-c2ccccc2Cl)c1 , report its measured IC50.
Key: < 300 nM

Exercise: What IC50 value was documented for this molecule, Cc1noc(-c2ccc(-c3ccc(C4(C(=O)O)CC4)cc3)cc2)c1C(O)c1cn(Cc2ccc(Cl)cc2)nn1 (stereo not drawn) ?
Key: < 300 nM

Exercise: Which IC50 value belongs to Cc1noc(-c2ccc(-c3ccc(C4(C(=O)O)CC4)cc3)cc2)c1Nc1cccc(-c2cccnc2)c1 ?
Key: < 300 nM
